Target: human alpha 7-wt nAChR (Homo sapiens)
Construct: expressed in transfected cells
Sequence (P36544 23-502): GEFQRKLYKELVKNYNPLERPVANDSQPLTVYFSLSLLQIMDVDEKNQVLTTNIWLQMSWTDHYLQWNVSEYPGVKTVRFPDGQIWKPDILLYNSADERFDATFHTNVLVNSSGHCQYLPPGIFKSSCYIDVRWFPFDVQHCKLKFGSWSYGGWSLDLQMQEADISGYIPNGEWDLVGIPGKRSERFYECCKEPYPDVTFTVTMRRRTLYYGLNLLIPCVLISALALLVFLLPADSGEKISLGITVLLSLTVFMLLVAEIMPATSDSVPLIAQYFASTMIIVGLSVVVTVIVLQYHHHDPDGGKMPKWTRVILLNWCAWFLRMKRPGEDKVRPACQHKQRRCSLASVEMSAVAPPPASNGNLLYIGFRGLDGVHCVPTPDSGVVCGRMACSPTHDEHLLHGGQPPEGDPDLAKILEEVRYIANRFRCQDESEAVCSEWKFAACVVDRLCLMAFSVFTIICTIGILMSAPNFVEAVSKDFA
Assay: Ca2+ flux imaging (FDSS) (Protocol B)
Assay type: cell-based
Conditions: efficacy of 100 μM choline defined as 100% in the absence of a PAM; read-out: a7-PAM-G_[33]_Eff_Curve_FI % Efficacy
Procedure: Ca^2+ Flux Imaging (FDSS) (Protocol B) […] PAM activity was detected in real time by applying the compounds to be tested to the loaded cells along with an alpha 7 nicotinic receptor agonist during constant monitoring of cellular fluorescence in a FDSS. […] A control response to choline was calculated on each plate from the difference in peak in fluorescence in wells receiving either choline or assay buffer alone. […]
MEASURED ATTRIBUTE: Emax (%)

Solved cases below.
| COMPOUND | MEASURED ATTRIBUTE | RECORDED MEASUREMENT |
| --- | --- | --- |
| Cc1cc(-c2sc(N3C[C@@H](C)O[C@@H](C)C3)nc2CNC(=O)C2(C)CC2)cc(C)n1 | Emax | 237 |
| Cc1ccc(-c2sc(N3C[C@@H](C)O[C@@H](C)C3)nc2CNC(=O)c2cccc(Cl)c2)cn1 | Emax | 473 |
| Cc1cc(-c2sc(N3CCOC[C@@H]3C)nc2CNC(=O)CC2CC2)cc(C)n1 | Emax | 994 |
| Cc1cc(-c2sc(N3C[C@@H](C)O[C@@H](C)C3)nc2CNC(=O)c2ccc(F)c(F)c2)cc(C)n1 | Emax | 869 |
| Cc1cc(-c2sc(N3C[C@@H](C)O[C@@H](C)C3)nc2CNC(=O)[C@@H]2CCCN2C)cc(C)n1 | Emax | 582 |

(1) Cc1cc(-c2sc(N3C[C@@H](C)O[C@@H](C)C3)nc2CNC(=O)c2ccc(F)cc2F)cc(C)n1
(2) Cc1cc(-c2sc(N3CC(C)OC(C)C3)nc2CNC(=O)c2cc(C)on2)cc(C)n1 (racemic)
Query block: Among 1 and 2 , whose measured Emax is the smaller figure? Mark your answer with the label of the selected entry.
Result block: 1

====

MEASURED ATTRIBUTE: melting point (°C)

| COMPOUND | UNITS LABEL | RECORDED MEASUREMENT |
| --- | --- | --- |
| Cc1cc(-c2sc(N3CCOCC3)nc2CNC(=O)CC2CC2)cc(C)n1 [Compound 64] | °C | 188 |
| Cc1cc(-c2sc(N3C[C@@H](C)O[C@@H](C)C3)nc2CNC(=O)c2oc(C)nc2C)cc(C)n1 [Compound 159] | °C | 193 |
| Cc1cc(-c2sc(N3CC(C)OC(C(F)(F)F)C3)nc2CNC(=O)CC2CC2)cc(C)n1 (single isomer, unassigned) [Compound 206] | °C | 150 |
| Cc1cc(-c2sc(N3C[C@@H](C)O[C@@H](C)C3)nc2CNC(=O)CC2CCC2)cc(C)n1 [Compound 49] | °C | 153 |
| Cc1cc(-c2sc(N3CC4CCC(C3)O4)nc2CNC(=O)c2cc(C)on2)cc(C)n1 [Compound 210] | °C | 206 |
| Cc1nocc1C(=O)NCc1nc(N2C[C@@H](C)O[C@@H](C)C2)sc1-c1ccnc(C(F)(F)F)c1 [Compound 197] | °C | 205 |
| Cc1cc(C(=O)NCc2nc(N3C[C@@H](C)O[C@@H](C)C3)sc2-c2ccncc2)no1 [Compound 100] | °C | 182 |
| Cc1cc(-c2sc(N3C[C@@H](C)O[C@@H](C)C3)nc2CNC(=O)c2csc(C)c2C)cc(C)n1 [Compound 164] | °C | 200 |
| Cc1cc(-c2sc(N3CCOC(C)(C)C3)nc2CNC(=O)CC2CC2)cc(C)n1 [Compound 156] | °C | 135 |
| Cc1cc(-c2sc(N3CCO[C@@H](C(F)(F)F)C3)nc2CNC(=O)CC2CC2)cc(C)n1 [Compound 191] | °C | 182 |
| Cc1cc(-c2sc(N3CCOC(C)C3)nc2CNC(=O)c2cc(C)on2)cc(C)n1 (single isomer, unassigned) [Compound 79] | °C | 166 |

Data provenance is patent US8637510B2.
